SYSTEM_UNDER_TEST: recombinant hPTP1B (phosphotyrosine phosphatase 1B) (Homo sapiens, UniProt P18031)
Construct: but without the carboxy-terminal hydrophobic region (corresponding to 1-299 aa)
Sequence (P18031 1-299): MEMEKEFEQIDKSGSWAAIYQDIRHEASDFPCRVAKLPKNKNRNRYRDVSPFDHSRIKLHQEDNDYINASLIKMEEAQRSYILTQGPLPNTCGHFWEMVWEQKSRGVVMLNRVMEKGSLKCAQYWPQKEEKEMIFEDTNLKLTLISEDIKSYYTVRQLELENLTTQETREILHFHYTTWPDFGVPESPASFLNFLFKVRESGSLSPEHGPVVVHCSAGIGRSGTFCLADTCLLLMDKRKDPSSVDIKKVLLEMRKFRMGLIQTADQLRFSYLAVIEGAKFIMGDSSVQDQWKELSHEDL
ASSAY_PROTOCOL: Enzymatic test for inhibition of a phosphatase (phosphopeptide dephosphorylation / p-nitrophenyl phosphate cleavage)
PARTICULARS: Table 3 Biological activity; inhibition of PTP1B; table does not say which substrate format (A phosphopeptide or B pNPP)
MEASURED_METRIC: IC50 (µM)

SMILES_ENTRY	SYSTEM_UNDER_TEST	EXPERIMENTAL_VALUE
O=C(O)c1cc(-c2ccc(CN(CC3CC3)C(=O)c3ccc4c(c3)OCO4)cc2)ccc1O	recombinant hPTP1B (phosphotyrosine phosphatase 1B) (Homo sapiens, UniProt P18031)	1.8
CCCCCN(Cc1ccc(-c2ccc(O)c(C(=O)O)c2)cc1)C(=O)c1ccc2c(c1)OCO2	recombinant hPTP1B (phosphotyrosine phosphatase 1B) (Homo sapiens, UniProt P18031)	1.5
O=C(O)c1cc(-c2ccc(CN(Cc3ccc(F)cc3)C(=O)/C=C/c3ccccc3)cc2)ccc1O	recombinant hPTP1B (phosphotyrosine phosphatase 1B) (Homo sapiens, UniProt P18031)	1.45
CCCCC(=O)N(Cc1ccc(-c2ccc(O)c(C(=O)O)c2)cc1)CC1CC1	recombinant hPTP1B (phosphotyrosine phosphatase 1B) (Homo sapiens, UniProt P18031)	1.9

* * *

SYSTEM_UNDER_TEST: recombinant hPTP1B (phosphotyrosine phosphatase 1B) (Homo sapiens, UniProt P18031)
Construct: but without the carboxy-terminal hydrophobic region (corresponding to 1-299 aa)
ASSAY_PROTOCOL: Enzymatic test for inhibition of a phosphatase (phosphopeptide dephosphorylation / p-nitrophenyl phosphate cleavage)
PARTICULARS: Table 3 Biological activity; inhibition of PTP1B; table does not say which substrate format (A phosphopeptide or B pNPP)
Protocol: Enzymatic Test Systems for Detecting Inhibition of a Phosphatase The compounds of the formula I were tested for their phosphatase-inhibiting effect in an in vitro assay. […] C) Cellular Fractionation and Complete Cell Extracts of Infected Sf9 Cells: • After the postinfection, aliquots were subjected to an analysis of protein expression by SDS-PAGE and Western blot analysis. […] Protein concentrations were determined with the aid of the Bradford method and bovine serum albumin as standard. […]
MEASURED_METRIC: IC50 (nM)

SMILES_ENTRY	IC50 / nM
COc1cccc(C(=O)N(Cc2ccc(-c3ccc(O)c(C(=O)O)c3)cc2)Cc2ccccc2OC)c1	1400

P = Cc1ccc(CN(Cc2ccc(-c3ccc(O)c(C(=O)O)c3)cc2)C(=O)c2ccc(Br)cc2)cc1
Q = O=C(O)c1cc(-c2ccc(CN(CCc3ccccc3)C(=O)c3ccc4c(c3)OCO4)cc2)ccc1O
Between P and Q , which one has the lower reported IC50 value? Record your answer as the label of the chosen record.
P

* * *

SYSTEM_UNDER_TEST: recombinant hPTP1B (phosphotyrosine phosphatase 1B) (Homo sapiens, UniProt P18031)
Construct: but without the carboxy-terminal hydrophobic region (corresponding to 1-299 aa)
ASSAY_PROTOCOL: Enzymatic test for inhibition of a phosphatase (phosphopeptide dephosphorylation / p-nitrophenyl phosphate cleavage)
PARTICULARS: Table 3 Biological activity; inhibition of PTP1B; table does not say which substrate format (A phosphopeptide or B pNPP)
pIC50: −log10 of the molar value.
MEASURED_METRIC: pIC50

Solved cases below.
SMILES_ENTRY	pIC50
CCCCC(=O)N(Cc1ccc(OC)cc1)Cc1ccc(-c2ccc(O)c(C(=O)O)c2)cc1	6.22
O=C(O)c1cc(-c2ccc(CN(Cc3ccccc3)C(=O)c3ccc4c(c3)OCO4)cc2)ccc1O	5.82
COc1ccccc1CN(Cc1ccc(-c2ccc(O)c(C(=O)O)c2)cc1)C(=O)C1CCCCC1	5.89
O=C(O)c1cc(-c2ccc(CN(Cc3ccccc3)C(=O)c3ccco3)cc2)ccc1O	5.89
Cc1ccc(CN(Cc2ccc(-c3ccc(O)c(C(=O)O)c3)cc2)C(=O)C2CCCCC2)cc1	5.80
O=C(O)c1cc(-c2ccc(CN(Cc3ccccc3)C(=O)c3ccc(Br)cc3)cc2)ccc1O	6.22
COc1ccc(CN(Cc2ccc(-c3ccc(O)c(C(=O)O)c3)cc2)C(=O)c2ccc3c(c2)OCO3)cc1	5.92
O=C(O)c1cc(-c2ccc(CN(CC3CC3)C(=O)C3CCCCC3)cc2)ccc1O	5.80
COc1cccc(C(=O)N(Cc2ccccc2)Cc2ccc(-c3ccc(O)c(C(=O)O)c3)cc2)c1	5.80
O=C(O)c1cc(-c2ccc(CN(Cc3ccc(F)cc3)C(=O)c3ccc4c(c3)OCO4)cc2)ccc1O	5.72

a = COc1cccc(C(=O)N(Cc2ccc(F)cc2)Cc2ccc(-c3ccc(O)c(C(=O)O)c3)cc2)c1
b = O=C(O)c1cc(-c2ccc(CN(Cc3ccc(F)cc3)C(=O)c3ccc(Br)cc3)cc2)ccc1O
Returns: the argument ( a or b ) having the larger pIC50. Write the label of whichever entry you select.
b
(b: 6.30, a: 5.80)
